These data points were gathered from paper PMC6420652.

Entries and their measured Kd follow.
B1: Clover-AZIN (antizyme inhibitor with an N-terminal Clover tag) [human] / antizyme-mRuby2 (antizyme with a C-terminal mRuby2 tag) [human] (parent complex)
chain 1: MKGFIDDANYSVGLLDEGTNLGNVIDNYVYEHTLTGKNAFFVGDLGKIVKKHSQWQNVVAQIKPFYTVKCNSAPAVLEILAALGTGFACSSKNEMALVQELGVPPENIIYISPCKQVSQIKYAAKVGVNILTCDNEIELKKIARNHPNAKVLLHIATEDNIGGEEGNMKFGTTLKNCRHLLECAKELDVQIIGVKFHVSSACKESQVYVHALSDARCVFDMAGEIGFTMNMLDIGGGFTGTEFQLEEVNHVISPLLDIYFPEGSGVKIISEPGSYYVSSAFTLAVNIIAKKVVENDKFPSGVEKTGSDEPAFMYYMNDGVYGSFASKLSEDLNTIPEVHKKYKEDEPLFTSSLWGPSCDELDQIVESCLLPELNVGDWLIFDNMGADSFHEPSAFNDFQRPAIYYMMSFSDWYEMQDAGITSDSMMKNFFFVPSCIQLSQEDSFSAEA
chain 2: not shown

# Variants of: B1
# experimentalDetails: FRET titration; parent: 24 nM; read off a plot
measuredAttribute: Kd

[[record]]
variantlabel = "chain 1 K92A"
result = "~25 nM"

[[record]]
variantlabel = "chain 1 E136A"
result = "~20 nM"

[[record]]
variantlabel = "chain 1 Y321A"
result = "~27 nM"

[[record]]
variantlabel = "chain 1 Q116A"
result = "~21 nM"

[[record]]
variantlabel = "chain 1 L139A"
result = "~9.3 nM"

[[record]]
variantlabel = "chain 1 L328A"
result = "~26 nM"

[[record]]
variantlabel = "chain 1 K69A"
result = "~21 nM"

[[record]]
variantlabel = "chain 1 K115A"
result = "~23 nM"

[[record]]
variantlabel = "chain 1 F398A"
result = "~23 nM"

